# Tested on: Streptococcus pneumoniae
# Procedure Details: Antibacterial activity against Streptococcus pneumoniae
# Assay type: functional
Assignment: determine reported MIC90 for the given compounds.
Field format: number, assumed µg/mL, no unit text.

Query block: API: value(readout=MIC90, system=Streptococcus pneumoniae) for record `C[C@@H](O[Si](C)(C)C(C)(C)C)[C@H]1C(=O)N/C1=C\C(=O)OCc1cc(O)cc(O)c1`
Result block: 32

Query block: API: value(readout=MIC90, system=Streptococcus pneumoniae) for record C[C@@H](O)[C@H]1C(=O)N2C(C(=O)O)=C(SCCNC=N)C[C@H]12 [IMIPENEM ANHYDROUS]
Result block: 1

Query block: API: value(readout=MIC90, system=Streptococcus pneumoniae) for record `C[C@@H](O)[C@H]1C(=O)N/C1=C\C(=O)O`
Result block: 128

Query block: API: value(readout=MIC90, system=Streptococcus pneumoniae) for record `C[C@@H](O[Si](C)(C)C(C)(C)C)[C@H]1C(=O)N/C1=C\C(=O)O`
Result block: 128

----------
# System: Streptococcus pneumoniae
# Procedure Details: Antibacterial activity against Streptococcus pneumoniae
# Assay type: functional
Outcome Measure: MIC90 (µg/mL)
Field format: number, assumed µg/mL, no unit text.

Query block: API: value(readout=MIC90, system=Streptococcus pneumoniae) for record `C[C@@H](O)[C@H]1C(=O)N2C(C(=O)O)=C(S[C@@H]3CN[C@H](C(=O)N(C)C)C3)[C@H](C)[C@H]12`
Result block: 2

Query block: API: value(readout=MIC90, system=Streptococcus pneumoniae) for record `C[C@@H](O[Si](C)(C)C(C)(C)C)[C@H]1C(=O)N/C1=C/C(=O)OCc1ccccc1`
Result block: 32

Query block: API: value(readout=MIC90, system=Streptococcus pneumoniae) for record `CCOC(=O)/C=C1\NC(=O)[C@@H]1[C@@H](C)O[Si](C)(C)C(C)(C)C`
Result block: 128

----------
# Tested on: Staphylococcus epidermidis
# Procedure Details: Antibacterial activity against Staphylococcus epidermidis
# Format: functional
Assignment: determine reported MIC90 for the given molecules.

Query block: State the recorded MIC90 for this entry: `C[C@@H](O[Si](C)(C)C(C)(C)C)[C@H]1C(=O)N/C1=C\C(=O)N[C@@H](Cc1ccc(O)cc1)C(=O)OC(C)(C)C`
Result block: > 128 µg/mL

Query block: State the recorded MIC90 for this entry: C[C@@H](O)[C@H]1C(=O)N2C(C(=O)O)=C(SCCNC=N)C[C@H]12 [IMIPENEM ANHYDROUS]
Result block: 1 µg/mL

Query block: State the recorded MIC90 for this entry: `C[C@@H](O[Si](C)(C)C(C)(C)C)[C@H]1C(=O)N/C1=C\C(=O)Oc1cc(O)cc(O)c1`
Result block: 64 µg/mL

Query block: State the recorded MIC90 for this entry: `CCOC(=O)/C=C1\NC(=O)[C@@H]1[C@@H](C)OC(=O)c1ccccc1`
Result block: > 128 µg/mL

Query block: State the recorded MIC90 for this entry: `CCOC(=O)/C=C1\NC(=O)[C@@H]1[C@@H](C)OC(=O)c1ccc(O)cc1`
Result block: > 128 µg/mL

Query block: State the recorded MIC90 for this entry: `C[C@@H](O[Si](C)(C)C(C)(C)C)[C@H]1C(=O)N/C1=C\C(=O)OCc1cc(O)cc(O)c1`
Result block: > 128 µg/mL

Query block: State the recorded MIC90 for this entry: `COc1cc(C(=O)O[C@H](C)[C@H]2C(=O)N/C2=C\C(=O)O)cc(OC)c1OC`
Result block: > 128 µg/mL
